Taken from patent US20230012368A1.

- Test system: Acinetobacter baumannii ATCC 17978
- Assay Comment: Antimicrobial susceptibility testing: 90% growth inhibitory concentration (IC90) determination
- Type: cell-based
- Setup Conditions: Acinetobacter baumannii, ATCC17978, 16 h, 90% growth inhibitory concentration; Acinetobacter baumannii ATCC17978; Iso-Sensitest broth, OD 600 nm over 16h; read-out: ATCC17978 IC90
Structures can show the parent of a compound that is named as a salt.
Consider the following compounds and their measured log10 of IC90 readings.
Property Label: log10 of IC90 (log10 of the value in nM)

[
  {
    "Compound": "CCc1cc(Nc2nccn3c(-c4ccc(Oc5ccncn5)c(F)c4F)cnc23)ccc1C(=O)N[C@@H](C)CNC(=O)[C@@H](N)CCNC(=N)N [Example 457, formic acid]",
    "log10 of IC90": 2.99
  },
  {
    "Compound": "COc1ccc(-c2cnc3c(Nc4ccc(C(=O)NCCN5CCNCC5)c(C)c4)nccn23)cc1F [Example 199]",
    "log10 of IC90": 2.62
  },
  {
    "Compound": "COc1ccc(-c2cnc3c(Nc4ccc(C(=O)N[C@H](C)CNC(=N)C(C)C)c(Cl)c4)nccn23)c(F)c1F [Example 509]",
    "log10 of IC90": 2.04
  },
  {
    "Compound": "COc1ccc(-c2cnc3c(Nc4ccc5c(c4)CCN(CCO)C5=O)nccn23)c(F)c1F [Example 302]",
    "log10 of IC90": 2.48
  },
  {
    "Compound": "CCc1cc(Nc2nccn3c(-c4ccc(OCC#N)c(F)c4F)cnc23)ccc1C(=O)NCCNC(=O)[C@H](N)CCCNC(=N)N [Example 148, formate]",
    "log10 of IC90": 2.00
  },
  {
    "Compound": "CCc1cc(Nc2nccn3c(-c4ccc(Oc5ncccn5)c(F)c4F)cnc23)ccc1C(=O)NCCCCCN [Example 558, formate]",
    "log10 of IC90": 2.28
  },
  {
    "Compound": "CCc1cc(Nc2nccn3c(-c4ccc(OC)c(F)c4F)cnc23)ccc1C(=O)NCCNC(=O)CCCN [Example 360]",
    "log10 of IC90": 1.85
  },
  {
    "Compound": "CCc1cc(Nc2nccn3c(-c4ccc(OC)c(F)c4F)cnc23)ccc1C(=O)NCC1CCCN1 (stereo not shown) [Example 527, hydrochloride]",
    "log10 of IC90": 2.68
  },
  {
    "Compound": "CCc1cc(Nc2nccn3c(-c4ccc(OC(F)F)cc4)cnc23)ccc1C(=O)N(C)CCN1CCNCC1 [Example 224]",
    "log10 of IC90": 3.04
  },
  {
    "Compound": "Cc1cc(Nc2nccn3c(-c4ccc(Cl)c(F)c4F)cnc23)ccc1C(=O)NCCCN [Example 214]",
    "log10 of IC90": 2.84
  },
  {
    "Compound": "C#CCOc1ccc(-c2cnc3c(Nc4ccc(C(=O)N[C@H](C)CN)c(CC)c4)nccn23)c(F)c1F [Example 460]",
    "log10 of IC90": 2.68
  },
  {
    "Compound": "Cc1cc(Nc2nccn3c(-c4ccc(Cl)cc4)cnc23)ccc1C(=O)NCCC1CCNCC1 [Example 189]",
    "log10 of IC90": 2.45
  },
  {
    "Compound": "CCc1cc(Nc2nccn3c(-c4ccc(OC)c(F)c4F)cnc23)ccc1C(=O)NCC(=O)NCCO [Example 423]",
    "log10 of IC90": 2.32
  },
  {
    "Compound": "N#CCOc1ccc(-c2cnc3c(Nc4ccc(C(=O)NCCCCCCCN)c(Cl)c4)nccn23)c(F)c1F [Example 521]",
    "log10 of IC90": 1.38
  },
  {
    "Compound": "Cc1cc(Nc2nccn3c(-c4ccc(OCC#N)c(F)c4F)cnc23)ccc1C(=O)NCCNC(=O)[C@@H]1C[C@@H](O)CN1 [Example 365]",
    "log10 of IC90": 1.95
  },
  {
    "Compound": "CCc1cc(Nc2nccn3c(-c4ccc(OC)c(F)c4F)cnc23)ccc1C(=O)NCC1CCN(CCC2CCCN2)CC1 (stereo not shown) [Example 556]",
    "log10 of IC90": 2.49
  },
  {
    "Compound": "CCc1cc(Nc2nccn3c(-c4ccc(Oc5ccccn5)c(F)c4F)cnc23)ccc1C(=O)NCC(=O)N1CCN[C@H](CO)C1 [Example 474]",
    "log10 of IC90": 2.96
  },
  {
    "Compound": "CCc1cc(Nc2nccn3c(-c4ccc(OC)c(F)c4F)cnc23)ccc1C(=O)NCC(O)CNC(=O)[C@@H](N)CCN (mixture of isomers) [Example 414, dihydrochloride]",
    "log10 of IC90": 2.59
  },
  {
    "Compound": "COc1ccc(-c2cnc3c(Nc4ccc(C(=O)N(C)C)c(C)c4)nccn23)c(F)c1F [Example 1]",
    "log10 of IC90": 2.08
  },
  {
    "Compound": "CN(CCC1CCNCC1)C(=O)c1ccc(Nc2nccn3c(-c4ccc(OCC#N)c(F)c4F)cnc23)cc1Cl [Example 78]",
    "log10 of IC90": 2.11
  },
  {
    "Compound": "CCc1cc(Nc2nccn3c(-c4ccc(OC)c(F)c4F)cnc23)ccc1C(=O)NCC1CN(C)C1 [Example 297]",
    "log10 of IC90": 2.18
  },
  {
    "Compound": "CCc1cc(Nc2nccn3c(-c4ccc(OC)c(F)c4F)cnc23)ccc1C(=O)NCCCC(=O)N1CCN[C@H](CO)C1 [Example 161]",
    "log10 of IC90": 1.90
  },
  {
    "Compound": "Cc1cc(Nc2nccn3c(-c4ccc(Cl)c(F)c4F)cnc23)ccc1C(=O)N[C@@H](C)CN [Example 258]",
    "log10 of IC90": 3.56
  },
  {
    "Compound": "Cc1cc(Nc2nccn3c(-c4ccc(OC(F)F)cc4)cnc23)ccc1C(=O)NCCN1CCOCC1 [Example 230]",
    "log10 of IC90": 3.08
  },
  {
    "Compound": "CN(CCCSc1nc(=O)c(=O)[nH]n1C)C(=O)c1ccc(Nc2nccn3c(-c4ccc(OCC#N)c(F)c4F)cnc23)cc1Cl [Example 395]",
    "log10 of IC90": 2.87
  },
  {
    "Compound": "Cc1cc(Nc2nccn3c(-c4ccc(OC(F)F)cc4)cnc23)ccc1C(=O)NCCCN1CCOCC1 [Example 209]",
    "log10 of IC90": 2.77
  },
  {
    "Compound": "CCc1cc(Nc2nccn3c(-c4ccc(OC)c(F)c4F)cnc23)ccc1C(=O)N[C@@H](C)CNC(=O)[C@@H](N)CCCNC(=N)N [Example 342]",
    "log10 of IC90": 2.86
  },
  {
    "Compound": "CNC(=O)c1ccc(Nc2nccn3c(-c4ccc(OC(F)F)cc4)cnc23)cc1CCO [Example 190]",
    "log10 of IC90": 2.52
  }
]
